test: Hemolytic activity, spectrophotometric; assay type: cell-based, human; settings: human, human red blood cells (huRBC), 5% hematocrit, 200 μg/mL, 37 °C
For each of the molecules below, state its hemolysis at 24 h, 200 µg/mL.
One number for each entry, in %.

The examples below pair each entry with its known result.
{"columns": ["Molecule", "Value Unit", "hemolysis at 24 h, 200 µg/mL"],
 "data": [
  ["CN(C)c1nc(NCCNS(=O)(=O)c2ccc(C(=O)/C=C/c3ccc(C(F)(F)F)cc3)cc2)nc(Nc2ccc(F)cc2)n1 [24g]", "%", 0.8],
  ["Cc1ccc(C2CC(c3ccc(S(=O)(=O)NCCNc4nc(N(C)C)nc(N5CCOCC5)n4)cc3)=Nc3c(N)nc(N)nc3N2)cc1 (stereo not shown) [30b]", "%", 0.2]
]}

Please examine the following record next.
Assign hemolysis at 24 h, 200 µg/mL to the following record: CN(C)c1nc(NCCNS(=O)(=O)c2ccc(C3=Nc4c(N)nc(N)nc4NC(c4ccccc4)C3)cc2)nc(Nc2ccc(F)cc2)n1 (stereo not shown) [31a] 1
